tested on: LG0567-F671-PDC KRAS tumor spheroid viability; test: Anticancer human tumor LG0567-F671-PDC patient-derived lung adenocarcinoma cell line growth inhibition [KRAS2]; conditions: second compound 0.316 µM; first compound 0.1 µM; active compounds read low; spheroids with HUVEC and MSC
metricName: viability, T/C (%)
Just the number please, in %, no unit attached.

COC(=O)c1ccc2c(C(=Nc3ccc(N(C)C(=O)CN4CCN(C)CC4)cc3)c3ccccc3)c(O)[nH]c2c1 + CC1OCC2(CCN(c3cnc(Sc4ccnc(N)c4Cl)c(N)n3)CC2)C1N ... 29.2

Fill in the blank: the reported viability, T/C of CC(C)n1nc(-c2ccc3oc(N)nc3c2)c2c(N)ncnc21 + C=CC(=O)N1CCN(c2nc(OCC3CCCN3C)nc3c2CCN(c2cccc4cccc(C)c24)C3)CC1CC#N is ____.
10.1

Now this one: CCNC(=O)CC1N=C(c2ccc(Cl)cc2)c2cc(OC)ccc2-n2c(C)nnc21 (configuration not stated) + CNCc1ccccc1-c1csc(C(C)Nc2nc(C)nc3cc(OC)c(OC)cc23)c1
87.6

Also COc1cc2nccc(Oc3ccc(NC(=O)C4(C(=O)Nc5ccc(F)cc5)CC4)cc3)c2cc1OC + C=CC(=O)N1CCN(c2nc(OCC3CCCN3C)nc3c2CCN(c2cccc4cccc(C)c24)C3)CC1CC#N ?
24.8

What about CC(=O)OC12COC1CC(O)C1(C)C(=O)C(O)C3=C(C)C(OC(=O)C(O)C(NC(=O)OC(C)(C)C)c4ccccc4)CC(O)(C(OC(=O)c4ccccc4)C21)C3(C)C (configuration not stated) + COc1cc2nc(C)nc(NC(C)c3cc(N)cc(C(F)(F)F)c3)c2cc1OC1CCOC1 ?
52.4

Same thing, different molecule: CC1COCCN1c1cc(-c2ccnn2C)c2ccnc(-c3ccn[nH]3)c2n1 (configuration not stated) + CC1OCC2(CCN(c3cnc(Sc4ccnc(N)c4Cl)c(N)n3)CC2)C1N
24.9

----------
Test system: LG0567-F671-PDC KRAS tumor spheroid viability
Assay: Anticancer human tumor LG0567-F671-PDC cell line growth inhibition [KRAS2];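 further: drug exposure lasted seven days after spheroids formed for three days; 100% = DMSO vehicle control viability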
Conditions: second compound 1 µM; first compound 0.1 µM; active compounds read low; spheroids with HUVEC and MSC
From the text: Multicellular complex tumor spheroid response to RAS pathway inhibitors in combination with a targeted agents in patient-derived cell lines with oncogenic KRAS variants from multiple cancer types A high-throughput screen of multi-cell type tumor spheroids was designed to identify active combinations of targeted small molecules and KRAS pathway inhibitors. […] Compounds. […] If the clinical Cmax for an agent had not been determined, the highest concentration tested was 10 microM. […]
Labels assigned by viability, T/C range: range 1: < 20%; range 2: ≥ 20% and < 30%; range 3: ≥ 30%

CC1COCCN1c1cc(-c2ccnn2C)c2ccnc(-c3ccn[nH]3)c2n1 (stereo unspecified) + CC1OCC2(CCN(c3cnc(Sc4ccnc(N)c4Cl)c(N)n3)CC2)C1N ... range 1
CC1OCC2(CCN(c3cnc(Sc4ccnc(N)c4Cl)c(N)n3)CC2)C1N (stereo unspecified) + C=CC(=O)N1CCN(c2nc(=O)n(-c3c(C)ccnc3C(C)C)c3nc(-c4c(O)cccc4F)c(F)cc23)C(C)C1 ... range 1
COc1cc2nccc(Oc3ccc(NC(=O)C4(C(=O)Nc5ccc(F)cc5)CC4)cc3)c2cc1OC + CC1OCC2(CCN(c3cnc(Sc4ccnc(N)c4Cl)c(N)n3)CC2)C1N ... range 2
COC(=O)c1ccc2c(C(=Nc3ccc(N(C)C(=O)CN4CCN(C)CC4)cc3)c3ccccc3)c(O)[nH]c2c1 + C=CC(=O)N1CCN(c2nc(=O)n(-c3c(C)ccnc3C(C)C)c3nc(-c4c(O)cccc4F)c(F)cc23)C(C)C1 ... range 2
CC1(C)CCC(CN2CCN(c3ccc(C(=O)NS(=O)(=O)c4ccc(NCC5CCOCC5)c([N+](=O)[O-])c4)c(Oc4cnc5[nH]ccc5c4)c3)CC2)=C(c2ccc(Cl)cc2)C1 + COc1cc2nc(C)nc(NC(C)c3cc(N)cc(C(F)(F)F)c3)c2cc1OC1CCOC1 ... range 3

Lab log: COc1cc2nccc(Oc3ccc(NC(=O)C4(C(=O)Nc5ccc(F)cc5)CC4)cc3)c2cc1OC + COc1cc2nc(C)nc(NC(C)c3cc(N)cc(C(F)(F)F)c3)c2cc1OC1CCOC1 — assign viability, T/C category
range 3

What about this molecule? CCNC(=O)CC1N=C(c2ccc(Cl)cc2)c2cc(OC)ccc2-n2c(C)nnc21 (stereo unspecified) + C=CC(=O)N1CCN(c2nc(=O)n(-c3c(C)ccnc3C(C)C)c3nc(-c4c(O)cccc4F)c(F)cc23)C(C)C1
range 3

Then this molecule: CC(C)n1nc(-c2ccc3oc(N)nc3c2)c2c(N)ncnc21 + COc1cc2nc(C)nc(NC(C)c3cc(N)cc(C(F)(F)F)c3)c2cc1OC1CCOC1
range 2

Another: O=C(c1cc(Cc2n[nH]c(=O)c3ccccc23)ccc1F)N1CCN(C(=O)C2CC2)CC1 + C=CC(=O)N1CCN(c2nc(OCC3CCCN3C)nc3c2CCN(c2cccc4cccc(C)c24)C3)CC1CC#N
range 2

Please do the same for Cn1nccc1Nc1nccc(-c2cc3c(s2)C(C)(C)N(CCN2CCOCC2)C3=O)n1 + C=CC(=O)N1CCN(c2nc(OCC3CCCN3C)nc3c2CCN(c2cccc4cccc(C)c24)C3)CC1CC#N as well.
range 2

----------
test system: LG0567-F671-PDC KRAS tumor spheroid viability; assay: Anticancer human tumor LG0567-F671-PDC cell line growth inhibition [KRAS2]; details: second compound 10 µM; first compound 0.316 µM; active compounds read low; spheroids with HUVEC and MSC;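 further: drug exposure lasted seven days after spheroids formed for three days; 100% = DMSO vehicle control viability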
Recorded viability, T/C values for a group of compounds are listed next.
Just the number in %, nothing appended.

CC1(C)CCC(CN2CCN(c3ccc(C(=O)NS(=O)(=O)c4ccc(NCC5CCOCC5)c([N+](=O)[O-])c4)c(Oc4cnc5[nH]ccc5c4)c3)CC2)=C(c2ccc(Cl)cc2)C1 + CC1OCC2(CCN(c3cnc(Sc4ccnc(N)c4Cl)c(N)n3)CC2)C1N ... 11.1
CC1COCCN1c1cc(-c2ccnn2C)c2ccnc(-c3ccn[nH]3)c2n1 (stereo not given) + CNCc1ccccc1-c1csc(C(C)Nc2nc(C)nc3cc(OC)c(OC)cc23)c1 ... 0.17
CC(C)NCC(C(=O)N1CCN(c2ncnc3c2C(C)CC3O)CC1)c1ccc(Cl)cc1 (stereo not given) + C=CC(=O)N1CCN(c2nc(=O)n(-c3c(C)ccnc3C(C)C)c3nc(-c4c(O)cccc4F)c(F)cc23)C(C)C1 ... 15.6
COC(=O)c1ccc2c(C(=Nc3ccc(N(C)C(=O)CN4CCN(C)CC4)cc3)c3ccccc3)c(O)[nH]c2c1 + CNCc1ccccc1-c1csc(C(C)Nc2nc(C)nc3cc(OC)c(OC)cc23)c1 ... 2.71

Attention now shifts to the item below.
Would you kindly share the measured viability, T/C for O=C(c1cc(Cc2n[nH]c(=O)c3ccccc23)ccc1F)N1CCN(C(=O)C2CC2)CC1 + CNCc1ccccc1-c1csc(C(C)Nc2nc(C)nc3cc(OC)c(OC)cc23)c1 ?
0.19

----------
test system: LG0567-F671-PDC KRAS tumor spheroid viability; test: Anticancer human tumor LG0567-F671-PDC cell line growth inhibition [KRAS2]; conditions: second compound 0.1 µM; first compound 0.0316 µM; active compounds read low; spheroids with HUVEC and MSC;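 further: drug exposure lasted seven days after spheroids formed for three days; 100% = DMSO vehicle control viability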
metricName: viability, T/C (%)
The reply should contain only the number, in %.

CC1COCCN1c1cc(-c2ccnn2C)c2ccnc(-c3ccn[nH]3)c2n1 (stereo not given) + C=CC(=O)N1CCN(c2nc(=O)n(-c3c(C)ccnc3C(C)C)c3nc(-c4c(O)cccc4F)c(F)cc23)C(C)C1 ... 18.8
CC(=O)OC12COC1CC(O)C1(C)C(=O)C(O)C3=C(C)C(OC(=O)C(O)C(NC(=O)OC(C)(C)C)c4ccccc4)CC(O)(C(OC(=O)c4ccccc4)C21)C3(C)C (stereo not given) + C=CC(=O)N1CCN(c2nc(=O)n(-c3c(C)ccnc3C(C)C)c3nc(-c4c(O)cccc4F)c(F)cc23)C(C)C1 ... 14.2
CN(C)C/C=C/C(=O)Nc1cc2c(Nc3ccc(F)c(Cl)c3)ncnc2cc1O[C@H]1CCOC1 + C=CC(=O)N1CCN(c2nc(=O)n(-c3c(C)ccnc3C(C)C)c3nc(-c4c(O)cccc4F)c(F)cc23)C(C)C1 ... 15.4
O=C(c1cc(Cc2n[nH]c(=O)c3ccccc23)ccc1F)N1CCN(C(=O)C2CC2)CC1 + CC1OCC2(CCN(c3cnc(Sc4ccnc(N)c4Cl)c(N)n3)CC2)C1N ... 63.8
CN(C)C/C=C/C(=O)Nc1cc2c(Nc3ccc(F)c(Cl)c3)ncnc2cc1O[C@H]1CCOC1 + CC1OCC2(CCN(c3cnc(Sc4ccnc(N)c4Cl)c(N)n3)CC2)C1N ... 43.3
CC1(C)CCC(CN2CCN(c3ccc(C(=O)NS(=O)(=O)c4ccc(NCC5CCOCC5)c([N+](=O)[O-])c4)c(Oc4cnc5[nH]ccc5c4)c3)CC2)=C(c2ccc(Cl)cc2)C1 + C=CC(=O)N1CCN(c2nc(=O)n(-c3c(C)ccnc3C(C)C)c3nc(-c4c(O)cccc4F)c(F)cc23)C(C)C1 ... 31.9
CCN1CCN(Cc2ccc(Nc3ncc(F)c(-c4cc(F)c5nc(C)n(C(C)C)c5c4)n3)nc2)CC1 + C=CC(=O)N1CCN(c2nc(=O)n(-c3c(C)ccnc3C(C)C)c3nc(-c4c(O)cccc4F)c(F)cc23)C(C)C1 ... 17.2
CC(C)NCC(C(=O)N1CCN(c2ncnc3c2C(C)CC3O)CC1)c1ccc(Cl)cc1 (stereo not given) + CNCc1ccccc1-c1csc(C(C)Nc2nc(C)nc3cc(OC)c(OC)cc23)c1 ... 78.9

Give the measured viability, T/C of CC1OCC2(CCN(c3cnc(Sc4ccnc(N)c4Cl)c(N)n3)CC2)C1N (stereo not given) + C=CC(=O)N1CCN(c2nc(=O)n(-c3c(C)ccnc3C(C)C)c3nc(-c4c(O)cccc4F)c(F)cc23)C(C)C1 .
17.5

Also, CC(C)n1nc(-c2ccc3oc(N)nc3c2)c2c(N)ncnc21 + CC1OCC2(CCN(c3cnc(Sc4ccnc(N)c4Cl)c(N)n3)CC2)C1N please.
16.2

Entry source: PubChem BioAssay AID1963856
